# target.or.test.system: T1, IL-18 receptor (IL-18R) on HEK-Blue IL18R reporter cells (UniProt Q13478 19-541; O95256 20-599, limits assumed)
# T1 sequence (looked up) 1: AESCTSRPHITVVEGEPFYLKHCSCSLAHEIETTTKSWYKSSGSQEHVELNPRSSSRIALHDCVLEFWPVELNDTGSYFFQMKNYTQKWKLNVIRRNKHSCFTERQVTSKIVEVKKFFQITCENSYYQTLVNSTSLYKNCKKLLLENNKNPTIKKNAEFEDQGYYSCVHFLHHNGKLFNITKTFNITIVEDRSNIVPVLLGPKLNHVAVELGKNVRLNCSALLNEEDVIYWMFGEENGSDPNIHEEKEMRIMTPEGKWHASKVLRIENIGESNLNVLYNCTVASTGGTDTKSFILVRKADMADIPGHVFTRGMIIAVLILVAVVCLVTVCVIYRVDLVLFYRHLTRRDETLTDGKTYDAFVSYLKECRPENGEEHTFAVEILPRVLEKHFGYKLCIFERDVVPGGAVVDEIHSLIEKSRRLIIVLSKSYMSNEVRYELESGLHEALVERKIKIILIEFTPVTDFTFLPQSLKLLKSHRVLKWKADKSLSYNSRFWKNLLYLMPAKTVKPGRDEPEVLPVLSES
# T1 sequence (looked up) 2: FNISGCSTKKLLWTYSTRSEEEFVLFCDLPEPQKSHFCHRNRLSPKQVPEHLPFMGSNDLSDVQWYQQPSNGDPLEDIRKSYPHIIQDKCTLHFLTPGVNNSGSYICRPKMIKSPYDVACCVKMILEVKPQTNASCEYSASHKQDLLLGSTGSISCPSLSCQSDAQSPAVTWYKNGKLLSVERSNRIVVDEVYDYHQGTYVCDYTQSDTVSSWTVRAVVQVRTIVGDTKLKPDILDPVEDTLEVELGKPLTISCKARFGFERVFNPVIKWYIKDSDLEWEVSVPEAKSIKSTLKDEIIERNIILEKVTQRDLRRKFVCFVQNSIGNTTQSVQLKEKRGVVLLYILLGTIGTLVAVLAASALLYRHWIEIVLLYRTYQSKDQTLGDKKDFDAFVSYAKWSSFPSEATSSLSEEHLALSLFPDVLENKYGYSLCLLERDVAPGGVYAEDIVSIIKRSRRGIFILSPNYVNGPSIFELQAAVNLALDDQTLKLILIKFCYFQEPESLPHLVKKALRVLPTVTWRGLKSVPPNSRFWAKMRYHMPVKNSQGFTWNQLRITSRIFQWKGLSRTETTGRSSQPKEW
# experiment.summary: cell-based or functional assay
property.measured: EC50, HEK-Blue IL18R reporter (nM)
Give just the number in nM; leave the unit off.

Q: Endpoint output: EC50, HEK-Blue IL18R reporter of IL-18 variant SEQ ID NO: 228 (V11I, C38A, C76A, S105I, C127A) (ligand) YFGKLESKLSIIRNLNDQVLFIDQGNRPLFEDMTDSDARDNAPRTIFIISMYKDSQPRGMAVTISVKCEKISTLSAENKIISFKEMNPPDNIKDTKSDIIFFQRIVPGHDNKMQFESSSYEGYFLAAEKERDLFKLILKKEDELGDRSIMFTVQNED . Value?
Result: 5.37

Q: Look at this binder and give its reported EC50, HEK-Blue IL18R reporter. IL-18 variant SEQ ID NO: 205 (V11I, C38A, K53A, T63A, C76A, C127A) (ligand) YFGKLESKLSIIRNLNDQVLFIDQGNRPLFEDMTDSDARDNAPRTIFIISMYADSQPRGMAVAISVKCEKISTLSAENKIISFKEMNPPDNIKDTKSDIIFFQRSVPGHDNKMQFESSSYEGYFLAAEKERDLFKLILKKEDELGDRSIMFTVQNED
Result: 0.17

Q: Item under review: IL-18 variant SEQ ID NO: 218 (V11I, C38A, K53A, C76A, C127A, D132A) (ligand) YFGKLESKLSIIRNLNDQVLFIDQGNRPLFEDMTDSDARDNAPRTIFIISMYADSQPRGMAVTISVKCEKISTLSAENKIISFKEMNPPDNIKDTKSDIIFFQRSVPGHDNKMQFESSSYEGYFLAAEKERALFKLILKKEDELGDRSIMFTVQNED . Reported EC50, HEK-Blue IL18R reporter?
Result: 1.95

Q: Give the measured EC50, HEK-Blue IL18R reporter of IL-18 variant SEQ ID NO: 237 (E6K, V11I, C38A, K53A, T63A, C76A, C127A, V153E) (ligand) YFGKLKSKLSIIRNLNDQVLFIDQGNRPLFEDMTDSDARDNAPRTIFIISMYADSQPRGMAVAISVKCEKISTLSAENKIISFKEMNPPDNIKDTKSDIIFFQRSVPGHDNKMQFESSSYEGYFLAAEKERDLFKLILKKEDELGDRSIMFTEQNED .
Result: 0.1

Q: Name the recorded EC50, HEK-Blue IL18R reporter for IL-18 variant SEQ ID NO: 230 (K8L, E6K, V11I, C38A, K53A, T63A, C76A, C127A) (ligand) YFGKLKSLLSIIRNLNDQVLFIDQGNRPLFEDMTDSDARDNAPRTIFIISMYADSQPRGMAVAISVKCEKISTLSAENKIISFKEMNPPDNIKDTKSDIIFFQRSVPGHDNKMQFESSSYEGYFLAAEKERDLFKLILKKEDELGDRSIMFTVQNED .
Result: 0.29

Q: EC50, HEK-Blue IL18R reporter lookup needed for IL-18 variant SEQ ID NO: 60 (E6K, C38Q, K53A) (ligand) YFGKLKSKLSVIRNLNDQVLFIDQGNRPLFEDMTDSDQRDNAPRTIFIISMYADSQPRGMAVTISVKCEKISTLSCENKIISFKEMNPPDNIKDTKSDIIFFQRSVPGHDNKMQFESSSYEGYFLACEKERDLFKLILKKEDELGDRSIMFTVQNED , thanks.
Result: 0.203

Q: What value of EC50, HEK-Blue IL18R reporter has been recorded for this entry: IL-18 variant SEQ ID NO: 244 (N-terminal G, E6K, V11I, C38A, M51G, K53A, T63A, C76A, C127A) (ligand) GYFGKLKSKLSIIRNLNDQVLFIDQGNRPLFEDMTDSDARDNAPRTIFIISGYADSQPRGMAVAISVKCEKISTLSAENKIISFKEMNPPDNIKDTKSDIIFFQRSVPGHDNKMQFESSSYEGYFLAAEKERDLFKLILKKEDELGDRSIMFTVQNED
Result: 14

meta.source: patent US20250186594A1
